- Tested on: HL-60(TB) leukemia
- protocol.summary: NCI-60 one-dose screen, 48 h
- measurement.parameters: 10 µM unless noted
This is part of a sample that, as a whole, favours compounds with a hit. Of some 83,000 tested, about 20% had one in any assay. Calls of active or inactive are those of the source. The calls were made as follows: active = growth percent below 10; inactive = the rest.
Thanks in advance; please answer with one of these: active, inactive

Check out these entries, answers already filled in.
>  <molecule>
CCOC(=O)/C(=C\c1ccc(-c2ccccc2)cc1)C(C)=O

>  <discrete.label>
inactive

$$$$
>  <molecule>
CSc1cnc2ccccc2n1

>  <discrete.label>
inactive

$$$$
>  <molecule>
COc1cc2c(cc1O)CC[C@@H]1[C@@H]2CC[C@]2(C)[C@@H](OCCCN(C)C)CC[C@@H]12

>  <discrete.label>
active

$$$$
>  <molecule>
CC1/C=C/C=C/C=C/C=C/C=C/C=C/C=C/C(O[C@@H]2O[C@H](C)[C@H](O)[C@@H](O)[C@@H]2N)CC(O)C(C(=O)O)C(O)CC(=O)CC(O)CC(O)CC(O)CC(=O)CCCC(=O)CC(=O)OC1C(C)CC(C)C(O)CC(=O)c1ccc(N)cc1 (stereo partly specified)

>  <discrete.label>
active

$$$$
>  <molecule>
COc1ccc([C@H]2[C@H](C(=O)Nc3cccnc3)c3ccccc3C(=O)N2c2ccccc2)cc1

>  <discrete.label>
inactive

$$$$

Problem: What outcome does the record of this test show for Cn1cc(-c2csc(-c3ccccc3)n2)c2cccnc21 ?
Result: active

Problem: Field entry: COC(=O)c1cc2oc(/C=N\NC(=O)c3cc4oc(C)c(C)c4[nH]3)cc2[nH]1
Result: inactive

Problem: Can you check CN1CC[C@H](c2c(O)cc(O)c3c(=O)cc(-c4ccccc4Cl)oc23)[C@H](O)C1 next?
Result: active

Problem: Same question, Clc1ccc2c(c1)N(C1CCCN(Cc3ccccc3)C1)c1ccccc1S2 (stereo unspecified) this time
Result: inactive

Problem: Repeat with CCN(CC)CCOc1ccc(/C(=C(\Cl)c2ccccc2)c2ccccc2)cc1
Result: inactive

Problem: Another: COc1ccc(-c2nc(-c3nc4cc(Cl)c(F)cc4[nH]3)c3ccccn23)cc1
Result: inactive

###

- System: HL-60(TB) leukemia
- protocol.summary: NCI-60 one-dose screen, 48 h
- measurement.parameters: 10 µM unless noted
Compounds without any hit were thinned out: in the full panel of roughly 83,000, 20% have a hit. Activity calls are given as the source filed them. How the source made its calls: active means growth percent below 10; inactive means the rest.
Your response should consist of one outcome taken from active, inactive

>  <molecule>
CN(C)c1ccc(CNC(C(=O)c2ccccc2)c2ccccc2)cc1 (stereo not given)

>  <discrete.label>
inactive

$$$$
>  <molecule>
C=C(C)[C@@H]1CC[C@]2(C)[C@H](CC=C3[C@@H]4CC(C)(C)CC[C@]4(C(N)=O)CC[C@]32C)[C@@]1(C)CCC#N

>  <discrete.label>
inactive

$$$$
>  <molecule>
CC(C)n1c(/C=C/[C@@H](O)C[C@@H](O)CC(=O)O)c(-c2ccc(F)cc2)c2ccccc21

>  <discrete.label>
inactive

$$$$
>  <molecule>
O=C(NOC1OC(CO)C(O)C(O)C1O)Nc1ccccc1 (stereo not given)

>  <discrete.label>
inactive

$$$$
>  <molecule>
N#CCCc1c[nH]c2ccccc12

>  <discrete.label>
inactive

$$$$

Problem: Dear all, I need the recorded test outcome for COC(=O)c1ccc2nc(-c3cc4ccccc4n3C)n(CCCCOc3cc4c(cc3OC)C(=O)N3CCC[C@H]3C=N4)c2c1 , thank you.
Result: active

Problem: Follow-up item: CCC1(C)OC(=O)NC1=O (stereo not given)
Result: inactive
